src = paper PMC4336329

Biological target: human ether-à-go-go-related gene (hERG) potassium channel (human, UniProt Q12809);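 also: peak tail current of the secondary pulse compared with the same well before compound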
Sequence (Q12809 whole entry, looked up): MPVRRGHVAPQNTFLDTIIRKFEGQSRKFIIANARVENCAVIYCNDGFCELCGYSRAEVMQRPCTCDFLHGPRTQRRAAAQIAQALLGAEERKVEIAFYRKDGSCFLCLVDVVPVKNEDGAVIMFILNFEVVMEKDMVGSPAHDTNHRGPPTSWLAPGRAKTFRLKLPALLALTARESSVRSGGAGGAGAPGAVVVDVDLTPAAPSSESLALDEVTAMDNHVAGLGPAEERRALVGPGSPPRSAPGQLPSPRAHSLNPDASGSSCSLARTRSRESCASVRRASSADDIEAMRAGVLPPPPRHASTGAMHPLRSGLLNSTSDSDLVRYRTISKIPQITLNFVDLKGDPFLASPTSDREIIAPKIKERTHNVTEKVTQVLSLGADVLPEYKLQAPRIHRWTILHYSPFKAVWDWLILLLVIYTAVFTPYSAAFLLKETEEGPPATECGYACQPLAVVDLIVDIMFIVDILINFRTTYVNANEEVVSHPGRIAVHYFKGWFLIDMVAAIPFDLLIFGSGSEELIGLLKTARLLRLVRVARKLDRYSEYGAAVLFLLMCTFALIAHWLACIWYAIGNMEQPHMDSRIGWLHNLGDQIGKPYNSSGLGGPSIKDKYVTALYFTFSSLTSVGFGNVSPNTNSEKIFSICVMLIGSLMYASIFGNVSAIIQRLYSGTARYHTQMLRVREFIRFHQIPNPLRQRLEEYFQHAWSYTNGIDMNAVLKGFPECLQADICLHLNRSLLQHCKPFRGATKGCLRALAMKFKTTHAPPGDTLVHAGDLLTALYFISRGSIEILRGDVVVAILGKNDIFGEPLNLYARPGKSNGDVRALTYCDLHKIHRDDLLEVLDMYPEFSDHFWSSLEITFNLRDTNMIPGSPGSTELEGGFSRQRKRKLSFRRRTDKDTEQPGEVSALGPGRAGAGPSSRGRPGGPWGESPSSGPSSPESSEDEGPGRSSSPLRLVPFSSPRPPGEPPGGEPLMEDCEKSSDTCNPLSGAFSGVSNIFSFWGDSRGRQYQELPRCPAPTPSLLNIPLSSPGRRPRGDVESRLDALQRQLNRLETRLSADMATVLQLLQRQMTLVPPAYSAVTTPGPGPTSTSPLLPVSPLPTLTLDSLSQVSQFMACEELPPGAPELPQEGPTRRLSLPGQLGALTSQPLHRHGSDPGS
Assay: primary screen, population patch clamp on CHO cells stably expressing hERG; higher = less effect of the substance
Screen size: about 310,000 compounds; about 14,000 (4.5%) showed an effect of 50% or more. The effect is printed as a negative number. Shown is part of a subset that was picked to be rich in strong results.
measuredEndpoint: hERG current change (%, negative = inhibition) at 10uM (%)
Numbers only, in %.

CC(C)Nc1oc(-c2cccc3ccccc23)nc1C#N : 2.18
O=C(COc1ccccc1)Nc1ccc(Cl)cc1C(=O)c1ccccc1 : 6.83
COCCCNC(=O)/C=C/c1ccc(OCc2c(F)cccc2Cl)cc1 : -1.25

// for each molecule below, give its hERG current change (%, negative = inhibition) at 10uM
1. CC(=O)N1CCC(N(CCCOC(C)C)S(=O)(=O)c2ccc([N+](=O)[O-])cc2)CC1
2. O=C(CN1CCCC1)Nc1ccccc1C(=O)c1ccccc1
3. CN1CCN(CC(=O)Nc2ccc([N+](=O)[O-])cc2C(=O)c2ccccc2)CC1
4. CN1CCN(CC(=O)Nc2ccccc2[N+](=O)[O-])CC1
5. O=C(/C=C/c1ccc(OCc2c(F)cccc2Cl)cc1)N1CCOCC1

// result
1. -35.3
2. -2.59
3. -84.6
4. -13.2
5. -30.1

For each of the molecules below, state hERG current change (%, negative = inhibition) at 10uM.
1. O=C(CN1CCN(CCO)CC1)Nc1ccc(Cl)cc1C(=O)c1ccccc1
2. CN(C)CCCNC(=O)/C=C/c1ccc(OCc2c(F)cccc2Cl)cc1

// result
-72.8
-67

###

Molecular target: human ether-à-go-go-related gene (hERG) potassium channel (human);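 also: peak tail current of the secondary pulse compared with the same well before compound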
Assay: primary screen, population patch clamp on CHO cells stably expressing hERG; higher = less effect of the substance
Out of some 310,000 compounds screened, about 14,000 (4.5%) showed an effect of 50% or more. Effects have a minus sign here. The sample holds strong results, similar compounds and a random draw of the others, so the mix is not that of the screen.
Lab note: compare hERG current change (%, negative = inhibition) at 10uM against -40%. Equal or greater, write class 1. Smaller, write class 0.

Worked set:
Cc1cc(C)cc(NC(=O)CSc2ncc(S(=O)(=O)c3ccccc3)c(=O)[nH]2)c1 : class 1
CCOC(=O)c1c(CSc2ccc(CC)cc2)oc2ccc(O)c(CN(C)C)c12.Cl : class 0
CCOC(=O)c1c(-c2ccccc2)oc2cc(CN(C)C)c(O)c(CN(C)C)c12 : class 0

// query Is reported hERG current change (%, negative = inhibition) at 10uM greater than or equal to -40% here: CCOC(=O)c1c(CSCc2ccccc2)oc2ccc(O)c(CN(C)C)c12.Cl
// result class 0

// query Evaluate CCOC(=O)c1c(CSc2ccccc2)oc2ccc(O)cc12 : hERG current change (%, negative = inhibition) at 10uM at minimum -40%?
// result class 1

// query Entry CC(=O)c1c(CSc2ccccc2)oc2ccc(O)c(CN(C)C)c12.Cl : is its hERG current change (%, negative = inhibition) at 10uM no less than -40%?
// result class 0

// query Check this compound for hERG current change (%, negative = inhibition) at 10uM at or above -40%: COC(=O)Cc1c(CSc2ccccc2)oc2ccc(O)c(CN(C)C)c12
// result class 0

// query hERG current change (%, negative = inhibition) at 10uM >= -40% for Cl.c1ccc(N2CCCCC2)c(NC2=NCCC2)c1 ?
// result class 1

// query For this compound, is measured hERG current change (%, negative = inhibition) at 10uM -40% or higher? COc1ccc(COc2ccc3ccc(=O)oc3c2)cc1
// result class 1

###

Target: human ether-à-go-go-related gene (hERG) potassium channel (human);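 also: peak tail current of the secondary pulse compared with the same well before compound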
Experiment: primary screen, population patch clamp on CHO cells stably expressing hERG; higher = less effect of the substance
Method: Briefly, Chinese hamster ovary (CHO) cells stably expressing the hERG channel were dislodged from tissue culture flasks and dispensed into PPC plates. […] During the recording, background leak currents were estimated by a 100 ms step to -80 mV from an initial holding potential of -70 mV and subtracted from the subsequent current measurement. The campaign was conducted in two phases using slight differences in recording protocol. […]
Screen size: about 310,000 compounds; about 14,000 (4.5%) showed an effect of 50% or more. The effect is printed as a negative number. The full list was thinned out, with strong results kept by preference.
What hERG current change (%, negative = inhibition) at 10uM was measured for each of the following?
Write the numeric value and follow it with the unit.

# annotated cases, reported hERG current change (%, negative = inhibition) at 10uM shown
N#Cc1c(N)n(-c2ccc(O)cc2)c2nc3ccccc3nc12 : 8.96%
Cc1ccc(-n2nc3c(=O)n(CCCC(=O)N4CCC(C)CC4)nc(C)c3c2C)cc1 : -30.1%

Please give hERG current change (%, negative = inhibition) at 10uM for each item listed below.
1. COc1ccc(NC(=O)NNC(=O)C(C)Oc2ccc3ccccc3c2)cc1 (centres unmarked)
2. OCCC1CN(Cc2cccc3c2OCO3)CCN1Cc1ccccc1 (centres unmarked)
3. OCCC1CN(Cc2cc3c(cc2Cl)OCO3)CCN1C1CCCC1 (centres unmarked)
4. O=C(Nc1ccc2c(c1)OCO2)c1ccc(CO)cc1
5. O=C(Cn1nc(Cc2cccnc2)c2ccccc2c1=O)N1CCN(c2ccccn2)CC1

// result
1: 8.34%; 2: -3.38%; 3: -50.8%; 4: 4.24%; 5: -23.1%

// batch mode: one hERG current change (%, negative = inhibition) at 10uM value per listed entry
1. CC(Oc1ccc(Cl)cc1)C(=O)NCCCn1ccnc1 (centres unmarked)
2. c1ccc(N2CCN(c3nnc(Cc4cccnc4)c4ccccc34)CC2)nc1
3. CCOc1ccc(Cl)cc1S(=O)(=O)N1CCC(C(=O)NCC2CCCO2)CC1 (centres unmarked)
4. COc1cc(N(Cc2ccccc2)Cc2ccccc2)c2ncn(C(C)C)c2c1
5. COCC(C)NC(=O)CSc1ncnc2sc(-c3ccccc3)cc12 (centres unmarked)

// result
1: -7.09%; 2: -50.1%; 3: -2.63%; 4: 6.37%; 5: -10.1%

Batch lookup, hERG current change (%, negative = inhibition) at 10uM per entry.
1. O=[N+]([O-])c1cccc(-c2ccc(C(=S)N3CCN(c4ccc(F)cc4)CC3)o2)c1
2. CC(C)n1cnc2c(N(C)c3ccccc3)nc(N(CCN(C)C)Cc3ccccc3)nc21
3. CC(C)N1CCN(Cc2cc3c(cc2Cl)OCO3)CC1CCO (centres unmarked)
4. O=c1c(NCCc2ccc(Cl)cc2)c(-c2ccccc2)c1=O
5. Cc1ccc(CN2CCN(Cc3cccc4c3OCO4)CC2CCO)cc1 (centres unmarked)

// result
1: 2.61%; 2: -73.1%; 3: -2.34%; 4: 5.81%; 5: -51.2%

Provide each entry's hERG current change (%, negative = inhibition) at 10uM from the list below.
1. CCOc1ccc(C2CC(c3cccc(OC)c3)Nc3nc(N)nn32)cc1 (centres unmarked)
2. OCCC1CN(Cc2cc3c(cc2Cl)OCO3)CCN1Cc1ccccc1 (centres unmarked)
3. COCCNC(=O)[C@@]1(Cc2ccccc2)C=C[C@@H](C)N1C(C)=O

// result
1. -26%
2. -45.3%
3. 11.5%

###

Biological target: human ether-à-go-go-related gene (hERG) potassium channel (human, UniProt Q12809);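 also: peak tail current of the secondary pulse compared with the same well before compound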
Experiment: primary screen, population patch clamp on CHO cells stably expressing hERG; higher = less effect of the substance
The campaign covered roughly 310,000 compounds. About 14,000 (4.5%) showed an effect of 50% or more. Effects have a minus sign here. The entries come from a sample that favours strong results as a whole.
measuredEndpoint: hERG current change (%, negative = inhibition) at 10uM (%)
Numbers only, in %.

Recorded results for 3 compounds are shown here.
O=C(CC1SC(=Nc2ccc3c(c2)OCCO3)NC1=O)Nc1ccc(F)cc1F (stereo not shown) : 8.62
CN(C)S(=O)(=O)c1ccc(Cl)c(NC(=O)CN2C(=O)NC3(CCc4ccccc43)C2=O)c1 (stereo not shown) : -18
COc1ccc(CCN(C)C/C=C/c2ccccc2)cc1OC : -64.6

Each of the following entries comes with a recorded value; kindly state hERG current change (%, negative = inhibition) at 10uM for each.
1. Cc1n[nH]c(C)c1S(=O)(=O)N1CCCC(C(=O)NCC2COc3ccccc3O2)C1 (stereo not shown)
2. CC12CCC(C(=O)n3c1nc1ccccc13)C2(C)C (stereo not shown)
3. COc1ccc(CCNC(=O)/C=C\c2ccccc2)cc1OC
4. Cc1c(Cl)ccc(S(=O)(=O)Nc2cccnc2)c1Cl
5. CC(C)n1c(C(F)(F)F)nc2cc(C(=O)N3CCOCC3)ccc21
6. CN(C)/C=C1\C(=O)NN=C1C(F)(F)F

// result
1. 0.365
2. -3.14
3. -7.74
4. 13.6
5. 16.3
6. 4.44

The measured hERG current change (%, negative = inhibition) at 10uM associated with COc1ccc(CCN(C)c2ccc(C(N)=O)cc2[N+](=O)[O-])cc1OC reads -6.3
